Sourced from ChEMBL document CHEMBL1129258

- Tested on: Streptococcus pyogenes
- TEST_METHOD_NOTES: In vitro antibacterial activity against gram-positive organism Streptococcus pyogenes EES61
- Format: functional
- REPORTED_CONDITIONS: Streptococcus pyogenes; read-out: MIC
# MIC per entry

{"columns": ["MOLECULE", "UNIT_TAG", "QUAL", "MIC"],
 "data": [
  ["NC1CCN(c2nc3c(-c4ccc(F)cc4F)cc(C(=O)O)c(=O)n3cc2F)C1 (centres undefined)", "µg/mL", "=", 0.39],
  ["CCc1cc(C(=O)O)c(=O)n2cc(F)c(N3CCC(N)C3)c(C)c12 (centres undefined)", "µg/mL", "=", 0.39],
  ["CC(=O)N[C@H]1C[C@H](C)N(c2nc3c(-c4ccc(F)cc4F)cc(C(=O)O)c(=O)n3cc2F)C1", "µg/mL", "=", 0.78],
  ["Cc1c(N2CCC(O)C2)c(F)cn2c(=O)c(C(=O)O)cc(C3CC3)c12 (centres undefined)", "µg/mL", "=", 0.05],
  ["Cc1c(N2C[C@@H]3[C@@H](N)[C@@H]3C2)c(F)cn2c(=O)c(C(=O)O)cc(C3CC3)c12", "µg/mL", "=", 0.1],
  ["Cc1c(N2CC(N)C2)c(F)cn2c(=O)c(C(=O)O)cc(C3CC3)c12", "µg/mL", "=", 0.39],
  ["Cc1ccc(S(=O)(=O)O)cc1.NC1CCN(c2nc3c(cc2F)c(=O)c(C(=O)O)cn3-c2ccc(F)cc2F)C1 (centres undefined) [TOSUFLOXACIN TOSYLATE]", "µg/mL", "=", 0.39],
  ["Cc1c(N2CC[C@@H]([C@H](C)N)C2)c(F)cn2c(=O)c(C(=O)O)cc(C3CC3)c12", "µg/mL", "<", 0.001],
  ["O=C(O)c1cc(-c2ccc(F)cc2F)c2nc(N3CCC(O)C3)c(F)cn2c1=O (centres undefined)", "µg/mL", "=", 0.78]
]}
